Tested on: gene editing with Cas9
Experiment: Screen of 322 new SSAP proteins, gene editing activity with Cas9 (Table 5)
Assay type: cell-based
Conditions: normalized
Text: 322 new SSAP proteins were identified from sequence data, synthesized, and screened for activity with Cas9 and dCas9. Gene editing activities are shown below in Table 5, followed by amino acid sequences of the proteins.
Provide the recorded Cas9 with SSAP activity (normalized) for the entries that follow.
Answers are plain numbers.

molecule | Cas9 with SSAP activity (normalized)
SSAP_187: SEQ ID NO: 356; Staphylococcus warneri (protein, listed as Staphylococcus warneri) ATQNDFKNQITDKKENKPQQSTNPRQVASDLLERMKPEIAKALPAHMSQDRMTRIALSAVNSNPKLSEVILNNPTSFLGALMQSAQLGLEPNTNLGHAYLIPYGNIVQLQLGYLGLLELAYRSGKYQKIMAMPVYKDDFFEYQYGTDEKLNHIPAQQQTGDAVGYYAFYKLTNGGTHFVYWSRQKMNMHQQQYSKGGNVWRNNFDAMALKTVIKDVLKYAPKSIEMGEAVTSDNNNFDFKDGGDIIDVTDYETEEN | 0.239

Task: Fill in: Cas9 with SSAP activity (normalized) of SSAP_12: SEQ ID NO: 181 (protein) STALATLAGKLAERVGMDSVDPQELITTLRQTAFKGDASDAQFIALLIVANQYGLNPWTKEIYAFPDKQNGIVPVVGVDGWSRIINENQQFDGMDFEQDNESCTCRIYRKDRNHPICVTEWMDECRREPFKTREGREITGPWQSHPKRMLRHKAMIQCARLAFGFAGIYDKDEAERIVENTAYTAERQPERDITPVNDETMQEINTLLIALDKTWDDDLLPLCSQIFRRDIRASSELTQAEAVKALGFLKQKASEQKVAA is ___
Result: −1.324
